Reported pKd by item:
targetUnderTest: ATP-dependent Clp protease ATP-binding subunit ClpC1 (Mycobacterium tuberculosis, UniProt P9WPC9)
Sequence (P9WPC9 whole entry, the tested form may be a part): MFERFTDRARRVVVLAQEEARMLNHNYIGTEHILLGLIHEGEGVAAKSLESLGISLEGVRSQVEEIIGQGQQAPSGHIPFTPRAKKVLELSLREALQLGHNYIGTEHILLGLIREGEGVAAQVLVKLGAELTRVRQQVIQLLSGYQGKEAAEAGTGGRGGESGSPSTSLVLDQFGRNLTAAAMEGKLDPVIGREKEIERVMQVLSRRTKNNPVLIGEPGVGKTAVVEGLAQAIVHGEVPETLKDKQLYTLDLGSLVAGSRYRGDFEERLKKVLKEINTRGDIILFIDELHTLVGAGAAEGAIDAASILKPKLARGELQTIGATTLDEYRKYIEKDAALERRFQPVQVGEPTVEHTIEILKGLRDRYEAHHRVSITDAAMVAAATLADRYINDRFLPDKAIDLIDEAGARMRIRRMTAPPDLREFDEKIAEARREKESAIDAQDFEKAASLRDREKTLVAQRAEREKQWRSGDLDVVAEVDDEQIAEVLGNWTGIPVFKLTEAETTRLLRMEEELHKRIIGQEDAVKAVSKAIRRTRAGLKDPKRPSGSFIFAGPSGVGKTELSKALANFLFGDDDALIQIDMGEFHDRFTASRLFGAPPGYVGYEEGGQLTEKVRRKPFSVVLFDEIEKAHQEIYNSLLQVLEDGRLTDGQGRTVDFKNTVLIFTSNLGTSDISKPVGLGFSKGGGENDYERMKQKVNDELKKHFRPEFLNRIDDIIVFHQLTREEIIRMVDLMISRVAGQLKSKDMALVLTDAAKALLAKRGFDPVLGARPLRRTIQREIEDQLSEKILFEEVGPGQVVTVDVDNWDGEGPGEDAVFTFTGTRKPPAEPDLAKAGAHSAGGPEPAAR
assay: Binding affinity to recombinant full length Mycobacterium tuberculosis H37Rv ClpC1 (1 to 842 residues) expressed in Escherichia coli BL21 cells by surface plasmon resonance analysis
pKd: −log10 of the molar value. Starred links: 1 amine or outer side, 2 acyl side, 3 side chain; linkers in the order of their positions; H or OH if unused. Non-standard residues stand in square brackets, D forms with d. Residues, ends and D or L forms follow the SMILES beside them. Trp(1-CMe2(2S-oxiranyl)) = CC(C)([C@H]1CO1)n1cc(C[C@H](N)C(=O)O)c2ccccc21; Trp(1-(1,1-Me2-allyl)) = C=CC(C)(C)n1cc(C[C@H](N)C(=O)O)c2ccccc21; X3 = CC(C)([C@H](O)CCl)n1cc(C[C@H](N[*:1])C(=O)[*:2])c2ccccc21; Tyr(3-NO2) = N[C@@H](Cc1ccc(O)c([N+](=O)[O-])c1)C(=O)O; X2 = C[C@H](CO)C[C@@H](C(=O)[*:2])N(C)[*:1]; Gly(E-crotyl) = C/C=C/C[C@H](N)C(=O)O; NMeL = CN[C@@H](CC(C)C)C(=O)O

{"columns": ["compound", "pKd"],
 "data": [
  ["C/C=C/C[C@@H]1NC(=O)[C@H](CC(C)C)NC(=O)[C@H](CC(C)C)N(C)C(=O)[C@H](C)NC(=O)[C@H](Cc2ccc(O)c([N+](=O)[O-])c2)NC(=O)[C@H](CC(C)C)N(C)C(=O)[C@H](Cc2cn(C(C)(C)[C@H](O)CCl)c3ccccc23)NC1=O (cyclo(A[NMeL]L[Gly(E-crotyl)][X3][NMeL][Tyr(3-NO2)]))", 5.82],
  ["C=CC(C)(C)n1cc(C[C@@H]2NC(=O)[C@H](C/C=C/C)NC(=O)[C@H](CC(C)C)NC(=O)[C@H](C[C@H](C)CO)N(C)C(=O)[C@H](C)NC(=O)[C@H](Cc3ccc(O)c([N+](=O)[O-])c3)NC(=O)[C@H](CC(C)C)N(C)C2=O)c2ccccc21 (cyclo(A[X2]L[Gly(E-crotyl)][Trp(1-(1,1-Me2-allyl))][NMeL][Tyr(3-NO2)]))", 5.96],
  ["C/C=C/C[C@@H]1NC(=O)[C@H](CC(C)C)NC(=O)[C@H](CC(C)C)N(C)C(=O)[C@H](C)NC(=O)[C@H](Cc2ccc(O)c([N+](=O)[O-])c2)NC(=O)[C@H](CC(C)C)NC(=O)[C@H](Cc2cn(C(C)(C)[C@H]3CO3)c3ccccc23)NC1=O (cyclo(A[NMeL]L[Gly(E-crotyl)][Trp(1-CMe2(2S-oxiranyl))]L[Tyr(3-NO2)]))", 5.82],
  ["C/C=C/C[C@@H]1NC(=O)[C@H](CC(C)C)NC(=O)[C@H](CC(C)C)N(C)C(=O)[C@H](C)NC(=O)[C@H](Cc2ccc(O)c([N+](=O)[O-])c2)NC(=O)[C@H](CC(C)C)N(C)C(=O)[C@H](Cc2cn(C(C)(C)[C@H]3CO3)c3ccccc23)NC1=O (cyclo(A[NMeL]L[Gly(E-crotyl)][Trp(1-CMe2(2S-oxiranyl))][NMeL][Tyr(3-NO2)]))", 6.27],
  ["C=CC(C)(C)n1cc(C[C@@H]2NC(=O)[C@H](C/C=C/C)NC(=O)[C@H](CC(C)C)NC(=O)[C@H](CC(C)C)N(C)C(=O)[C@H](C)NC(=O)[C@H](Cc3ccc(O)cc3)NC(=O)[C@H](CC(C)C)N(C)C2=O)c2ccccc21 (HELM PEPTIDE1{A.[meL].L.[C/C=C/C[C@H](N[*:1])C(=O)[*:2]].[C=CC(C)(C)n1cc(C[C@H](N[*:1])C(=O)[*:2])c2ccccc21].[meL].Y}$PEPTIDE1,PEPTIDE1,1:R1-7:R2$$$V2.0)", 5.24],
  ["C/C=C/C[C@@H]1NC(=O)[C@H](CC(C)C)N2C(=O)[C@H](C[C@](C)(O)[C@H]2O)N(C)C(=O)[C@H](C)NC(=O)[C@H](Cc2ccc(O)c([N+](=O)[O-])c2)NC(=O)[C@H](CC(C)C)N(C)C(=O)[C@H](Cc2cn(C(C)(C)[C@H]3CO3)c3ccccc23)NC1=O", 7.30]
]}
